From: patent US11098029B2

system_tested: human OX2R (Homo sapiens (Human))
Sequence (O43614 whole entry): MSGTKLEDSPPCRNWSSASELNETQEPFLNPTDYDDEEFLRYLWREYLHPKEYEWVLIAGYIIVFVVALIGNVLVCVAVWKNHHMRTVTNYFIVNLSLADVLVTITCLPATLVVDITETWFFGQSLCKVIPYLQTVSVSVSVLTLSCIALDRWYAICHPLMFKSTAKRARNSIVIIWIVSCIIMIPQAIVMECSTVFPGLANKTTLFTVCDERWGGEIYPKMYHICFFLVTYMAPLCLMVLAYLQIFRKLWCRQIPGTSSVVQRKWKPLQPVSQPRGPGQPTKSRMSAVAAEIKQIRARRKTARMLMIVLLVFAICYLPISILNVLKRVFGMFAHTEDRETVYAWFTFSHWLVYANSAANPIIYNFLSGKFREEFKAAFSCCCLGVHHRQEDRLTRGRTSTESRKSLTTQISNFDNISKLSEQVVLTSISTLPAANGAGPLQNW
assay_notes: IPOne (IP-One, Cisbio) orexin receptor agonist assay in CHO cells expressing human OX2R
run_parameters: hOX2R_IP; percentage of mean max effect of a reference compound at 1 uM (100% activity vs Orexin A)
property: Emax (%)

Which Emax (%) reading was recorded for the molecule COC(=O)N1[C@H](C)C[C@H](NS(=O)(=O)N(C)CCOC(F)(F)F)[C@@H]1CO[C@H]1CC[C@@H](c2cccc(F)c2)CC1 ?
99

// Emax (%) lookup, key: COC(=O)N1[C@H](C)C[C@H](NS(=O)(=O)N(C)CC#N)[C@@H]1CO[C@H]1CC[C@@H](c2cccc(F)c2)CC1
102

Which value of Emax (%) has been reported for C[C@@H]1C[C@H](NS(=O)(=O)N(C)C)[C@H](CO[C@H]2CC[C@@H](c3ccccc3)CC2)N1C(=O)OCC(F)F in the records?
102

For the molecule shown here, COC(=O)N1[C@H](C)C[C@H](NS(=O)(=O)N(C)CCC#N)[C@@H]1CO[C@H]1CC[C@@H](c2cccc(F)c2)CC1 , give the reported Emax (%).
98

Record request: Emax (%) value, item COC(=O)N1[C@H](C)C[C@H](NS(C)(=O)=O)[C@@H]1CO[C@H]1CC[C@@H](c2cc(F)cc(F)c2)CC1
102

Query (molecule): COC(=O)N1[C@H](C)C[C@H](NS(C)(=O)=O)[C@@H]1CO[C@H]1CC[C@@H](c2ncccn2)CC1 ; field requested: Emax (%)
99

I have this molecule here, COC(=O)N1[C@H](C)C[C@H](NS(C)(=O)=O)[C@@H]1CO[C@H]1CC[C@H](c2cc(F)cc(F)c2)CC1 , and I need its recorded Emax (%).
100

Can you look up the measured Emax (%) of CNS(=O)(=O)N[C@H]1C[C@@H](C)N(C(=O)OC(C)C)[C@H]1COC1CCC(C(C)C)CC1 (stereo partly shown) for me?
100

Which Emax (%) is listed for COC(=O)N1[C@H](C)C[C@H](NS(=O)(=O)N(C)C)[C@@H]1CO[C@H]1CC[C@@H](c2ccc(C#N)c(C)c2)CC1 ?
100

Query: Emax (%); subject: COC(=O)N1[C@H](C)C[C@H](NS(=O)(=O)N(C)CCO)[C@@H]1CO[C@H]1CC[C@@H](c2cccc(F)c2)CC1
101

Quick one: Emax (%) of COC(=O)N1[C@H](C)C[C@H](NS(C)(=O)=O)[C@@H]1CO[C@H]1CC[C@@H](c2ccccc2)CC1 ?
101

Emax (%) for CNS(=O)(=O)N[C@H]1C[C@@H](C)N(C(=O)OCC(F)F)[C@H]1COC1CCC(C(C)C)CC1 (stereo partly shown) ?
101

GET /values?readout=Emax (%)&item= COC(=O)N1[C@H](C)C[C@H](NS(=O)(=O)CF)[C@@H]1CO[C@H]1CC[C@@H](c2cccc(F)c2)CC1
102

Please report the recorded Emax (%) for COC(=O)N1C(CO)CC(NS(C)(=O)=O)C1CO[C@H]1CC[C@@H](c2ccccc2)CC1 (stereo partly shown) .
101

For COC(=O)N1C(CCO)CC(NS(C)(=O)=O)C1CO[C@H]1CC[C@@H](c2ccccc2)CC1 (stereo partly shown) , what is its reported Emax (%)?
102

Look up Emax (%): CCC1CC(NS(C)(=O)=O)C(CO[C@H]2CC[C@@H](c3ccccc3)CC2)N1C(=O)OC (stereo partly shown)
100
